Attribution: ChEMBL document CHEMBL5528065

Listed compounds paired with reported inhibition
species: Homo sapiens; assay: Inhibition of human PKG using FAM-IP3R peptide as fluorescent substrate at 10 uM preincubated for 15 mins followed by substrate addition measured after 1 hr by fluorescence polarization based IMAP assay relative to control; conditions: time 75.0 min

{"compound": "COc1ccc(-c2[nH]c(C3CCN(C)CC3)cc2-c2ccncc2)cc1.Cl.Cl", "outputUnit": "%", "inhibition": 6}
{"compound": "C[C@@H]1CN(C)CCC1c1cc(-c2ccncc2)c(-c2ccc(F)cc2)[nH]1.Cl.Cl (single isomer, unassigned)", "outputUnit": "%", "inhibition": 45}
{"compound": "CN1CCC(c2cc(-c3ccncc3)c(-c3ccc(C(F)(F)F)cc3)[nH]2)CC1.Cl.Cl", "outputUnit": "%", "inhibition": -2}

* * *

assay: Inhibition of recombinant Plasmodium falciparum PKG using FAM-PKA peptide as fluorescent substrate preincubated for 15 mins followed by substrate addition measured after 1 hr by fluorescence polarization based IMAP assay
readoutLabel: IC50

{"compound": "CC(=O)O.CN1CCC(c2cc(-c3ccnc(C#N)c3)c(-c3ccc(F)cc3)[nH]2)CC1", "experimentalResult": "95 nM"}
{"compound": "CC1CN(C)CC[C@H]1c1cc(-c2ccncc2)c(-c2ccc(F)cc2)[nH]1.Cl.Cl (single isomer, unassigned)", "experimentalResult": "14 nM"}
{"compound": "CN1CCC(c2cc(-c3ccnc(Br)c3)c(-c3ccc(F)cc3)[nH]2)CC1.Cl.Cl", "experimentalResult": "169 nM"}
{"compound": "CN1CCC(c2cc(-c3ccncc3)c(-c3ccc(F)cc3)n2C)CC1.Cl.Cl", "experimentalResult": "112 nM"}

* * *

test: Inhibition of recombinant Plasmodium falciparum PKG using FAM-PKA peptide as fluorescent substrate preincubated for 15 mins followed by substrate addition measured after 1 hr by fluorescence polarization based IMAP assay
pIC50: −log10 of the molar value.
readoutLabel: pIC50

{"compound": "CN1CCC(c2[nH]c(-c3ccc(F)cc3)c(-c3ccncc3)c2C(N)=O)CC1.Cl.Cl", "experimentalResult": 5.31}
{"compound": "CN1CCC(c2cc(-c3ccncc3)c(-c3ccc(F)cc3)[nH]2)CC1.Cl", "experimentalResult": 7.51}
{"compound": "CN1CCC(c2cc(-c3ccncc3Cl)c(-c3ccc(F)cc3)[nH]2)CC1.Cl.Cl", "experimentalResult": 6.82}
{"compound": "CN1CCC(c2cc(-c3ccncc3C#N)c(-c3ccc(F)cc3)[nH]2)CC1.Cl.Cl", "experimentalResult": 7.46}
{"compound": "CCOC(=O)c1c(C2CCN(C)CC2)[nH]c(-c2ccc(F)cc2)c1-c1ccncc1.Cl.Cl", "experimentalResult": 5.99}
{"compound": "CN1C2CCC1CC(c1cc(-c3ccncc3)c(-c3ccc(F)cc3)[nH]1)C2.Cl.Cl (centres undefined)", "experimentalResult": 6.88}
{"compound": "CN1CCC(c2cc(-c3ccncc3CO)c(-c3ccc(F)cc3)[nH]2)CC1.Cl.Cl", "experimentalResult": 5.82}
{"compound": "CN1CCC(c2cc(-c3ccnc(N)c3)c(-c3ccc(F)cc3)[nH]2)CC1.Cl.Cl", "experimentalResult": 6.45}
{"compound": "C[C@H]1CN(C)CC[C@H]1c1cc(-c2ccncc2)c(-c2ccc(F)cc2)[nH]1.Cl.Cl (racemic)", "experimentalResult": 8.00}
